Examples of compounds with documented MIC follow.
- Tested on: Enterococcus faecalis
- Assay Remarks: Minimum inhibitory concentration against aerobic organism Streptococcus faecalis strain 2864
- Type: functional

## Task Which MIC reading was recorded for the compound "Cc1ccccc1-[n+]1ccc(N[C@@H]2C(=O)N3C(C(=O)[O-])=C(CSc4nnnn4C)CS[C@H]23)cc1" ?
## Result > 128 µg/mL

## Task Value lookup for MIC; key = "CC(C)[n+]1ccc(N[C@@H]2C(=O)N3C(C(=O)[O-])=C(CSc4nnnn4C)CS[C@H]23)cc1"
## Result 128 µg/mL

## Task Name the recorded MIC for "CC[n+]1ccc(N[C@@H]2C(=O)N3C(C(=O)[O-])=C(CSc4nnnn4C)CS[C@H]23)cc1" .
## Result > 128 µg/mL

## Task Consider the compound "Cc1c[n+](C)ccc1N[C@@H]1C(=O)N2C(C(=O)[O-])=C(CSc3nnnn3C)CS[C@H]12" and give its measured MIC.
## Result > 128 µg/mL

## Task Requested read-out: MIC. Entry: Cn1nnnc1SCC1=C(C(=O)[O-])N2C(=O)C(Nc3cccc[n+]3C)C2SC1 (stereo unspecified)
## Result > 128 µg/mL

## Task So what does the record say about MIC for "Cn1nnnc1SCC1=C(C(=O)[O-])N2C(=O)[C@@H](Nc3cc[n+](COCC(F)(F)F)cc3)[C@H]2SC1" ?
## Result > 128 µg/mL

====

# maps each entry to its MIC
- System: Enterococcus faecalis
- Assay Remarks: Minimum inhibitory concentration against aerobic organism Streptococcus faecalis strain 2864
- Assay type: functional

Worked examples follow.
Cn1nnnc1SCC1=C(C(=O)[O-])N2C(=O)[C@@H](Nc3cc[n+](COCc4ccccc4)cc3)[C@H]2SC1: > 128 µg/mL
Cc1nnc(SCC2=C(C(=O)[O-])N3C(=O)[C@@H](Nc4cc[n+](Cc5ccccc5)cc4)[C@H]3SC2)s1: 64 µg/mL
Cn1nnnc1SCC1=C(C(=O)[O-])N2C(=O)[C@@H](Nc3cc[n+](COCC(Cl)(Cl)Cl)cc3)[C@H]2SC1: > 128 µg/mL

## Task // returns reported MIC for input "O=C([O-])C1=C(Cl)CS[C@@H]2[C@H](Nc3cc[n+](Cc4ccccc4)cc3)C(=O)N12"
## Result > 128 µg/mL

Measured values drawn from ChEMBL document CHEMBL1122046 for this set.
